Each recorded value in this set is attributed to patent US11331314B2.

pIC50: recorded values
- tested_target: human V1a receptor (Homo sapiens, UniProt P37288)
- Sequence (P37288 whole entry): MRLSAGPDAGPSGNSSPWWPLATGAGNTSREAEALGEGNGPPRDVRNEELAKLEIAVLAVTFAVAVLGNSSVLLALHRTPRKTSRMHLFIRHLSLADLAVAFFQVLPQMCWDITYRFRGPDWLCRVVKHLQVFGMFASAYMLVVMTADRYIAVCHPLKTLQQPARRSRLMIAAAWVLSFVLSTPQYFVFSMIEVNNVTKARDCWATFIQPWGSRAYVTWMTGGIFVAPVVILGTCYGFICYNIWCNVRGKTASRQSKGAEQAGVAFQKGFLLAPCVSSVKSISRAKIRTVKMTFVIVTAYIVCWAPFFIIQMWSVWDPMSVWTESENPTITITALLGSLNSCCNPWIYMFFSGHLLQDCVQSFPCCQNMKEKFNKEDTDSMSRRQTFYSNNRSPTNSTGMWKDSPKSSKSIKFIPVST
- test_method_notes: Cellular in vitro assay for determining vasopressin receptor activity, V1a receptor cell line (photoprotein luminescence)
- measurement_conditions: CHO cell line transfected with the human V1a receptor; agonist [Arg8]-vasopressin at EC50 concentration; read-out: IC50 hV1a
Value format note: pIC50 is -log10 of concentration (mol/L); just state the number.

Illustrative cases are given below, each with its answer.
C[C@@H](O)CNc1nc(Cn2nc(-c3ccc(Cl)cc3)n(C[C@H](O)C(F)(F)F)c2=O)nn1-c1ccccc1Cl
9.20
CC1(O)CCN(c2nc(Cn3nc(-c4ccc(Cl)cc4)n(C[C@H](O)C(F)(F)F)c3=O)nn2-c2ccccc2Cl)C1 (single isomer, unassigned) [Example 31]
8.97
O=C1CC(Nc2nc(Cn3nc(-c4ccc(Cl)cc4)n(C[C@H](O)C(F)(F)F)c3=O)nn2-c2ccccc2Cl)CN1 (mixture of isomers)
8.98
COC(C)(C)CNc1nc(Cn2nc(-c3ccc(Cl)cc3)n(C[C@H](O)C(F)(F)F)c2=O)nn1-c1ccccc1Cl
8.64

Lookup: Would you kindly share the measured pIC50 for CC(C)(C)CNc1nc(Cn2nc(-c3ccc(Cl)cc3)n(C[C@H](O)C(F)(F)F)c2=O)nn1-c1ccccc1Cl ?
Found: 9.12

Lookup: Would you kindly share the measured pIC50 for O=c1n(Cc2nc(N3CCOC(C(F)(F)F)C3)n(CCC(F)(F)F)n2)nc(-c2ccc(Cl)cc2)n1C[C@H](O)C(F)(F)F (single isomer, unassigned) [Example 105] ?
Found: 7.66

Lookup: Would you kindly share the measured pIC50 for CN(C)c1nc(Cn2nc(-c3ccc(Cl)cc3)n(C[C@H](O)C(F)(F)F)c2=O)nn1-c1cccc(F)c1 ?
Found: 8.33

* * *

- tested_target: human V1a receptor (Homo sapiens)
- test_method_notes: Cellular in vitro assay for determining vasopressin receptor activity, V1a receptor cell line (photoprotein luminescence)
- measurement_conditions: CHO cell line transfected with the human V1a receptor; agonist [Arg8]-vasopressin at EC50 concentration; read-out: IC50 hV1a
Decision: IC50 beneath 0.8 nM gives 1 (yes); IC50 meeting or exceeding 0.8 nM gives 0 (no).

O=c1n(Cc2nc(N3CC4(C3)CS(=O)(=O)C4)n(-c3ccccc3Cl)n2)nc(-c2ccc(Cl)cc2)n1C[C@H](O)C(F)(F)F
0 (no)
CC(C)(CNc1nc(Cn2nc(-c3ccc(Cl)cc3)n(C[C@H](O)C(F)(F)F)c2=O)nn1CCC(F)(F)F)NS(C)(=O)=O
0 (no)
NC(CNc1nc(Cn2nc(-c3ccc(Cl)cc3)n(C[C@H](O)C(F)(F)F)c2=O)nn1-c1ccccc1Cl)C(F)(F)F (single isomer, unassigned) [Example 8]
1 (yes)

Lookup: API: query returns whether the compound falls strictly under 0.8 nM in IC50. Query: O=c1n(Cc2nc(N3CCNC(C(F)(F)F)C3)n(-c3ccccc3Cl)n2)nc(-c2ccc(Cl)cc2)n1C[C@H](O)C(F)(F)F (single isomer, unassigned) [Example 67]
Found: 0 (no)

Lookup: API: query returns whether the compound falls strictly under 0.8 nM in IC50. Query: O=C1CN(c2nc(Cn3nc(-c4ccc(Cl)cc4)n(C[C@H](O)C(F)(F)F)c3=O)nn2-c2ccccc2Cl)CCN1
Found: 1 (yes)

Lookup: API: query returns whether the compound falls strictly under 0.8 nM in IC50. Query: O=C1NCC2(CN(c3nc(Cn4nc(-c5ccc(Cl)cc5)n(C[C@H](O)C(F)(F)F)c4=O)nn3-c3ccccc3Cl)C2)N1
Found: 1 (yes)
